# assay system: T1, human programmed cell death protein 1 (hPD-1) C93S (aa 24-167) (Homo sapiens, UniProt Q15116, C93S)
# T1 construct: made as a fusion with a TEV site and human Fc; the Fc was cut off with TEV protease; source: Expi293F, purified (Protein A, TEV cleavage of Fc, SEC; monomer fractions); not shown: Fc (human), C-terminal, cleaved
# T1 sequence (Q15116 24-167 C93S): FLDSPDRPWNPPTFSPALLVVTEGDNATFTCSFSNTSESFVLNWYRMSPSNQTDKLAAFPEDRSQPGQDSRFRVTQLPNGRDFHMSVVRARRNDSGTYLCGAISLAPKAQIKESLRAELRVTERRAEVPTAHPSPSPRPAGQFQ
# assay comment: SPR; Carterra LSA; Fab from the ammonium sulfate precipitate of the culture supernatant immobilised on a NiHC200M chip; hPD-1 (1-1024 nM) or mPD-1-Fc (4-1024 nM) as analyte, fourfold dilution series, no regeneration; HBS-EP pH 7.4, 25 °C; medians over the spots of a construct, KD = koff/kon
# setup conditions: one partner purified
measured parameter: kon

- binder: "toripalimab Fab H.F112Y (Fab, V domains shown, heavy chain of Sm3 with this change; numbers count from the chain's first residue; as the light chain of Sm3; source: Brevibacillus, culture supernatant (ammonium sulfate precipitate); not shown: 6xHis, C-terminal, kept; 6xHN, C-terminal, kept) VH: QGQLVQSGAEVKKPGASVKVSCKASGYTFTDYEMHWVRQAPIHGLEWIGVIESETGGTAYNQKFKGRVTITADKSTSTAYMELSSLRSEDTAVYYCAREGITTVATTYYWYYDVWGQGTTVTVSS VL: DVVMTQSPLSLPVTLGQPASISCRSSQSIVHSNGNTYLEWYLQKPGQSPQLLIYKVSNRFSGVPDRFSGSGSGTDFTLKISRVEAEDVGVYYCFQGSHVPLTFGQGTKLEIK"
  observed result: "13700 M⁻¹ s⁻¹"
- binder: "toripalimab Fab L.P100N (Fab, V domains shown, as the heavy chain of Sm3; light chain of Sm3 with this change; numbers count from the chain's first residue; source: Brevibacillus, culture supernatant (ammonium sulfate precipitate); not shown: 6xHis, C-terminal, kept; 6xHN, C-terminal, kept) VH: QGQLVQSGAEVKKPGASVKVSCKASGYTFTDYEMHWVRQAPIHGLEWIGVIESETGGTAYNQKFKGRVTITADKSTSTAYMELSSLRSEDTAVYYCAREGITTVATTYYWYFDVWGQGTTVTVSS VL: DVVMTQSPLSLPVTLGQPASISCRSSQSIVHSNGNTYLEWYLQKPGQSPQLLIYKVSNRFSGVPDRFSGSGSGTDFTLKISRVEAEDVGVYYCFQGSHVNLTFGQGTKLEIK"
  observed result: "16800 M⁻¹ s⁻¹"
- binder: "toripalimab Fab L.P100A (Fab, V domains shown, as the heavy chain of Sm3; light chain of Sm3 with this change; numbers count from the chain's first residue; source: Brevibacillus, culture supernatant (ammonium sulfate precipitate); not shown: 6xHis, C-terminal, kept; 6xHN, C-terminal, kept) VH: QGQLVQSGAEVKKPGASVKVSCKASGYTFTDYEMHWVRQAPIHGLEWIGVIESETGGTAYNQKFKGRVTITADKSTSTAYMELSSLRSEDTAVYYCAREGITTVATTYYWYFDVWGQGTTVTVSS VL: DVVMTQSPLSLPVTLGQPASISCRSSQSIVHSNGNTYLEWYLQKPGQSPQLLIYKVSNRFSGVPDRFSGSGSGTDFTLKISRVEAEDVGVYYCFQGSHVALTFGQGTKLEIK"
  observed result: "19500 M⁻¹ s⁻¹"
